- System: HT29 colon
- test-name: NCI-60 one-dose screen, 48 h
- experimental-parameters: 10 µM
The panel holds about 83,000 compounds, 20% with a hit somewhere; the sample as a whole holds those more often. Activity calls are given as the source filed them. How the source made its calls: active means growth percent below 10; inactive means the rest.
// allowed return values: 1 (active), -1 (inactive)

Below, 10 molecules whose answers are already recorded.
molecule | measured-on | qualitative-label
COc1ccc(CN2[C@@H](C(=O)NCc3ccc(C(=O)NO)cc3)Cc3c([nH]c4ccccc34)[C@@H]2C2CC2)cc1 | HT29 colon | -1
CN(C)c1ccc(/C=C/C(=O)c2ccc(NC(=O)CN3C(=O)NC(C)(c4ccccc4)C3=O)cc2)cc1 (configuration not stated) | HT29 colon | -1
O=C(CN1CCN(c2ncnc3c2cnn3-c2ccccc2)CC1)Nc1nncs1 | HT29 colon | 1
COc1ccc(C(=O)Nc2sc3c(c2C#N)CCC(=O)C3)cc1C(F)(F)F | HT29 colon | 1
CCOc1ccc(Nc2nc3ccccc3nc2Nc2ccc(OCC)cc2)cc1 | HT29 colon | -1
Cc1nc(Nc2nc(C)c3ccc(OCCN4CCOCC4)cc3n2)[nH]c(=O)c1C | HT29 colon | 1
O=C(CNc1nc(-c2ccccc2)cs1)Nc1ccc(Cl)cc1 | HT29 colon | 1
O=C(CNc1nc(-c2ccccc2)cs1)Nc1ccc([N+](=O)[O-])cc1Cl | HT29 colon | -1
O=[N+]([O-])c1ccc(-c2nc(-c3ccccc3)c(-c3ccccc3)n2-c2ccc(S(=O)(=O)Nc3ncccn3)cc2)cc1 | HT29 colon | -1
O=C(CSc1nnc(-c2c[nH]c3ccccc23)n1-c1ccccc1)c1ccc(Br)cc1 | HT29 colon | -1

Field: outcome | Entry: O=C(c1ccc(O)cc1)C1[C@H](c2ccc(Br)cc2)[C@@H](c2ccccc2)NC12C(=O)Nc1ccccc12 (some centres not stated)
1

Hi, do you know how `Nc1nc2c(F)c(F)c(F)c(F)c2s1` came out in this test?
-1

---

- Test system: MCF7 breast
- test-name: NCI-60 one-dose screen, 48 h (100 = growth as untreated, 0 = no growth, -100 = all killed)
- experimental-parameters: 10 µM
About 83,000 compounds went through this panel and 20% of them were active in at least one assay; those are over-represented in the sample as a whole.
Is growth at least 30%? Then label 1. If not, label 0.

Form field: growth at least 30%? Entry: `CN1CCN(Cc2ccc(C(=O)Nc3cccc(Nc4ccc5cc(O)ccc5n4)c3)cc2C(F)(F)F)CC1`
label 0

Would you say `N#Cc1c(-c2ccc(Cl)cc2)cc(-c2ccccc2)nc1OCc1ccccc1` shows growth at minimum 30%?
label 1

Is it the case that `Clc1cccc(N/N=C/c2c[nH]c3ccccc23)n1` has growth reaching or exceeding 30%?
label 0

Tell me whether growth is at least 30% here: `COc1cnc2c(c1)C(=O)c1c-2n(CCCNCCO)c(=O)c2cc(OC)c(OC)cc12`
label 0

Quick check: does `O=C(N=Nc1c(O)[nH]c2ccc(Br)cc12)c1ccc2nc(-c3ccccc3)[nH]c2c1` have growth greater than or equal to 30%?
label 0

---

- System: SN12C renal
- test-name: NCI-60 one-dose screen, 48 h (100 = growth as untreated, 0 = no growth, -100 = all killed)
- experimental-parameters: 10 µM
This is part of a sample that, as a whole, favours compounds with a hit. Of some 83,000 tested, about 20% had one in any assay.
result-type: growth (%)
Hi! Could you send only the number? It should be in %, unit omitted.

compound | measured-on | growth / %
CCCCCc1ccc(S(=O)(=O)N(C(C)=O)c2cc(-c3csc(N(C)C(C)=O)n3)ccc2N2CCN(C)CC2)cc1 | SN12C renal | 21.2

Give SN12C renal growth for `O=C(NO)c1ccc(Cn2ccc3c(NCc4ccccc4)ncnc32)cc1`
13.9

For SN12C renal, provide growth of CN1C(=O)N(C)C2SC(N/N=C/c3cccs3)=NC21 (stereo not given) please.
26.5

Provide the documented growth with SN12C renal as the system for `O=C(CS(=O)(=O)c1oc(-c2ccc(Cl)cc2)nc1S(=O)(=O)c1ccccc1)N1CCCC1`
-26.2

What measured growth is associated with `COc1cccc(-c2ccnc(/N=C(\N)Nc3ccc(S(=O)(=O)Nc4nc(C)cc(C)n4)cc3)n2)c1` on SN12C renal?
100

Field: growth (SN12C renal). Entry: `COc1ccc2c3nc4cc(C)c(C)cc4nc3n(CCN(C)C)c2c1`
-15.6

Request - read-out growth | tested on SN12C renal | compound `Nc1nc(-c2ccccc2)cc(-c2cc3ccccc3nc2Cl)n1`
83

Lab note: need growth with SN12C renal for entry `COc1cc2oc(-c3cccc(C(=O)Nc4ccc(Cl)cc4)c3)cc(=O)c2c(OCCNC(=O)CNC(=O)OC(C)(C)C)c1OC` , please look it up.
53.5

Record `CN1CCN(c2ccc(C(=O)/C=C/c3ccc(C#N)cc3)cc2)CC1` : what is its growth with SN12C renal?
73.8

Recorded growth for `Cc1ccc(F)cc1N/C=c1\s/c(=C(\C#N)C(=O)Nc2ccccc2)n(-c2ccccc2)c1=O` with SN12C renal, please?
46.9
